- assayed-system: NOP-RLuc (UniProt P41146)
- Sequence (P41146 whole entry): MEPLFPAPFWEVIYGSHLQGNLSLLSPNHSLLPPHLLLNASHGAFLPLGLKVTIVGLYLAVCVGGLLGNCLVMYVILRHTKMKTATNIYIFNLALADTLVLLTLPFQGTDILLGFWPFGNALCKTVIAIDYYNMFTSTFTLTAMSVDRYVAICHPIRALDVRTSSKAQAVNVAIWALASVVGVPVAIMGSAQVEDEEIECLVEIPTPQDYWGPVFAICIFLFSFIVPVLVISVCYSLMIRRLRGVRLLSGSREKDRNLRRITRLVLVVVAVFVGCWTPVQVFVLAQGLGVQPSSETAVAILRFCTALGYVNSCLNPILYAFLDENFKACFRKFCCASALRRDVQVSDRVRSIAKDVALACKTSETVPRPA
- experimental-conditions: scale: fraction of the maximal effect of N/OFQ-NH2
Ends that are not written are not given here.
Provide the recorded E max, NOP–G protein interaction (BRET), normalised to N/OFQ-NH2 (E max = 1) for the entries that follow.
One number for each entry.

FGGFTGARKCARKLANQ-NH2 (also: homodimer: Cys10-Cys10 disulfide to second copy) [[[Cys^10]N/OFQ-NH2]2] : 1.07
FGGFTGARKSARKLCNQ-NH2 (also: homodimer: Cys15-Cys15 disulfide to second copy) [[[Cys^15]N/OFQ-NH2]2] : 0.95
FGGFTGARCSARKLANQ-NH2 (also: homodimer: Cys9-Cys9 disulfide to second copy) [[[Cys^9]N/OFQ-NH2]2] : 1.03
FGGFTGARKSARCLANQ-NH2 (also: homodimer: Cys13-Cys13 disulfide to second copy) [[[Cys^13]N/OFQ-NH2]2] : 0.84

Next binder, please.
**Query** So what does the record say about E max, NOP–G protein interaction (BRET), normalised to N/OFQ-NH2 (E max = 1) for FGGFTGCRKSARKLANQ-NH2 (also: homodimer: Cys7-Cys7 disulfide to second copy) [[[Cys^7]N/OFQ-NH2]2] ?
**Result** 1.09
